assay_text: Plasma and brain pharmacokinetics after single IV dose (LC-MS/MS)
Assay type: in vivo, mouse
conditions: C57BL/6, mouse, plasma, iv, 51 mg/kg, 12 h after single IV NP F26 51 mg/kg, WT mice, individual samples; read-out: Plasma Concentration

>  <smiles_code>
CCCCCCCCCCCCS(=O)(=O)[C@](F)(C(=O)Nc1cc(C)c(O)c(C)c1C)c1ccccc1

>  <concentration at 12 h / ng/mL>
4570

$$$$

* * *

assay_text: Plasma and brain pharmacokinetics after single IV dose (LC-MS/MS)
Format: in vivo, mouse
conditions: C57BL/6, mouse, brain, iv, 51 mg/kg, 48 h after single IV NP F26 51 mg/kg, WT mice, individual samples; read-out: Brain-to-Plasma Ratio

>  <molecule>
CCCCCCCCCCCCS(=O)(=O)[C@](F)(C(=O)Nc1cc(C)c(O)c(C)c1C)c1ccccc1 [F26]

>  <Kp at 48 h>
1.6

$$$$

* * *

assay_text: Plasma and brain pharmacokinetics after single IV dose (LC-MS/MS)
Format: in vivo, mouse
conditions: C57BL/6, mouse, plasma; WT mice, single IV NP F26 51 mg/kg, non-compartmental, n = 2; read-out: Tmax in plasma

>  <smiles_code>
CCCCCCCCCCCCS(=O)(=O)[C@](F)(C(=O)Nc1cc(C)c(O)c(C)c1C)c1ccccc1

>  <Tmax, h>
4

$$$$

* * *

assay_text: Plasma and brain pharmacokinetics after single IV dose (LC-MS/MS)
Format: in vivo, mouse
conditions: C57BL/6, mouse, brain, iv, 51 mg/kg, 4 h after single IV NP F26 51 mg/kg, WT mice, individual samples; read-out: Brain Concentration

>  <smiles_code>
CCCCCCCCCCCCS(=O)(=O)[C@](F)(C(=O)Nc1cc(C)c(O)c(C)c1C)c1ccccc1

>  <concentration at 4 h>
1120 ng/g

$$$$

* * *

assay_text: Plasma and brain pharmacokinetics after single IV dose (LC-MS/MS)
Format: in vivo, mouse
conditions: C57BL/6, mouse, brain, iv, 51 mg/kg, 24 h after single IV NP F26 51 mg/kg, WT mice, individual samples

>  <molecule>
CCCCCCCCCCCCS(=O)(=O)[C@](F)(C(=O)Nc1cc(C)c(O)c(C)c1C)c1ccccc1 [F26]

>  <concentration at 24 h, ng/g>
571

$$$$

* * *

assay_text: Plasma and brain pharmacokinetics after single IV dose (LC-MS/MS)
Format: in vivo, mouse
conditions: C57BL/6, mouse, brain, iv, 51 mg/kg, 48 h after single IV NP F26 51 mg/kg, WT mice, individual samples; read-out: Brain Concentration
readout: concentration at 48 h (ng/g)

>  <compound>
CCCCCCCCCCCCS(=O)(=O)[C@](F)(C(=O)Nc1cc(C)c(O)c(C)c1C)c1ccccc1 [F26]

>  <number>
59

$$$$

* * *

assay_text: Plasma and brain pharmacokinetics after single IV dose (LC-MS/MS)
Assay type: in vivo, mouse
conditions: C57BL/6, mouse, brain; WT mice, single IV NP F26 51 mg/kg; read-out: Tmax in brain
readout: Tmax (h)

>  <compound>
CCCCCCCCCCCCS(=O)(=O)[C@](F)(C(=O)Nc1cc(C)c(O)c(C)c1C)c1ccccc1 [F26]

>  <number>
4

$$$$

* * *

assay_text: Plasma and brain pharmacokinetics after single IV dose (LC-MS/MS)
Type: in vivo, mouse
conditions: C57BL/6, mouse, plasma; WT mice, single IV NP F26 51 mg/kg; read-out: T1/2 in plasma (converted)

>  <smiles_code>
CCCCCCCCCCCCS(=O)(=O)[C@](F)(C(=O)Nc1cc(C)c(O)c(C)c1C)c1ccccc1

>  <half-life>
4.75 h

$$$$

* * *

assay_text: Plasma and brain pharmacokinetics after single IV dose (LC-MS/MS)
Type: in vivo, mouse
conditions: C57BL/6, mouse, plasma; WT mice, single IV NP F26 51 mg/kg; read-out: AUClast in plasma

>  <smiles_code>
CCCCCCCCCCCCS(=O)(=O)[C@](F)(C(=O)Nc1cc(C)c(O)c(C)c1C)c1ccccc1

>  <AUC(0-t)>
229 µg·h/mL

$$$$

* * *

assay_text: Plasma and brain pharmacokinetics after single IV dose (LC-MS/MS)
Type: in vivo, mouse
conditions: C57BL/6, mouse, plasma, iv, 51 mg/kg, 4 h after single IV NP F26 51 mg/kg, WT mice, individual samples; read-out: Plasma Concentration
readout: concentration at 4 h

>  <compound>
CCCCCCCCCCCCS(=O)(=O)[C@](F)(C(=O)Nc1cc(C)c(O)c(C)c1C)c1ccccc1 [F26]

>  <result>
18500 ng/mL

$$$$

* * *

assay_text: Plasma and brain pharmacokinetics after single IV dose (LC-MS/MS)
Format: in vivo, mouse
conditions: C57BL/6, mouse, plasma; WT mice, single IV NP F26 51 mg/kg; read-out: Cmax in plasma

>  <smiles_code>
CCCCCCCCCCCCS(=O)(=O)[C@](F)(C(=O)Nc1cc(C)c(O)c(C)c1C)c1ccccc1

>  <Cmax (ng/mL)>
17500

$$$$

* * *

assayed_target: ACAT1 (Mus musculus, UniProt Q61263)
Construct: MEFs predominantly express ACAT1, not ACAT2; endogenous in cells
Sequence (Q61263 whole entry): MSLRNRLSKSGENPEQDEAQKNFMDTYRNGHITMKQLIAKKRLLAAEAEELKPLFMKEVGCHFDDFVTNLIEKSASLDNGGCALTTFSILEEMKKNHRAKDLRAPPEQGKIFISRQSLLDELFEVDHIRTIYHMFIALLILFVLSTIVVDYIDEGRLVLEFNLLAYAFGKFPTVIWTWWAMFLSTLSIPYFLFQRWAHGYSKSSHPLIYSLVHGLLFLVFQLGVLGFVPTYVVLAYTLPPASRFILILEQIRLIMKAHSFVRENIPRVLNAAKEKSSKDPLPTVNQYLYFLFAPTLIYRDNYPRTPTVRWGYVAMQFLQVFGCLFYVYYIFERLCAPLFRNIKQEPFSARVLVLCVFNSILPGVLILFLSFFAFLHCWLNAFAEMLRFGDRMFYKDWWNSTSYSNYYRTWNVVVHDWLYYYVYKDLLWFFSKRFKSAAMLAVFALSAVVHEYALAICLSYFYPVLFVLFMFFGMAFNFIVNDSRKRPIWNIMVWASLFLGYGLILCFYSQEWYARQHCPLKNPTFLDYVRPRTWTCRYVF
assay_text: ACAT activity by [3H] oleate pulse assay in MEFs
conditions: [3H] oleate pulse assay, MEFs (predominantly ACAT1); read-out: IC50 against ACAT in MEFs

>  <smiles_code>
CCCCCCCCCCCCS(=O)(=O)[C@](F)(C(=O)Nc1cc(C)c(O)c(C)c1C)c1ccccc1

>  <assayed_target>
ACAT1 (Mus musculus, UniProt Q61263)

>  <units_of_measure>
nM

>  <IC50>
3

$$$$

* * *

assay_text: Plasma and brain pharmacokinetics after single IV dose (LC-MS/MS)
Format: in vivo, mouse
conditions: C57BL/6, mouse, plasma, iv, 51 mg/kg, 48 h after single IV NP F26 51 mg/kg, WT mice, individual samples; read-out: Plasma Concentration

>  <smiles_code>
CCCCCCCCCCCCS(=O)(=O)[C@](F)(C(=O)Nc1cc(C)c(O)c(C)c1C)c1ccccc1

>  <units_of_measure>
ng/mL

>  <concentration at 48 h>
37

$$$$

* * *

assay_text: Plasma and brain pharmacokinetics after single IV dose (LC-MS/MS)
Type: in vivo, mouse
conditions: C57BL/6, mouse, brain; WT mice, single IV NP F26 51 mg/kg; read-out: Cmax in brain

>  <smiles_code>
CCCCCCCCCCCCS(=O)(=O)[C@](F)(C(=O)Nc1cc(C)c(O)c(C)c1C)c1ccccc1

>  <units_of_measure>
ng/g

>  <Cmax>
1130

$$$$

* * *

assay_text: Plasma and brain pharmacokinetics after single IV dose (LC-MS/MS)
Type: in vivo, mouse
conditions: C57BL/6, mouse, brain, iv, 51 mg/kg, 4 h after single IV NP F26 51 mg/kg, WT mice, individual samples; read-out: Brain-to-Plasma Ratio

>  <compound>
CCCCCCCCCCCCS(=O)(=O)[C@](F)(C(=O)Nc1cc(C)c(O)c(C)c1C)c1ccccc1 [F26]

>  <Kp at 4 h>
0.061

$$$$

Source of measurements: paper PMC11394700
